- test.target: Myo3, P36006
- measurement.description: SPOT array
- test.settings: median of control spots 468
// classify: if (SPOT intensity < 4) met else not met

A selection of reference data follows.
NMLSRPRLAKLPSIR = not met
RTIRKLPLMSLSEYF = met
PPPPPPPPPPLPQSL = not met
KKEKKPPKIPKKVYT = met

query: Would you kindly verify if SPOT intensity of "VQKRKLPLPGSIASA" is strictly less than 4?
result: met

query: Would you kindly verify if SPOT intensity of "RLPAPPPPPRRGPAP" is strictly less than 4?
result: met
